Data origin, for the record: patent US9303018B2

Measurement Target: human LTA4 hydrolase (Homo sapiens (Human))
Sequence (P09960 whole entry): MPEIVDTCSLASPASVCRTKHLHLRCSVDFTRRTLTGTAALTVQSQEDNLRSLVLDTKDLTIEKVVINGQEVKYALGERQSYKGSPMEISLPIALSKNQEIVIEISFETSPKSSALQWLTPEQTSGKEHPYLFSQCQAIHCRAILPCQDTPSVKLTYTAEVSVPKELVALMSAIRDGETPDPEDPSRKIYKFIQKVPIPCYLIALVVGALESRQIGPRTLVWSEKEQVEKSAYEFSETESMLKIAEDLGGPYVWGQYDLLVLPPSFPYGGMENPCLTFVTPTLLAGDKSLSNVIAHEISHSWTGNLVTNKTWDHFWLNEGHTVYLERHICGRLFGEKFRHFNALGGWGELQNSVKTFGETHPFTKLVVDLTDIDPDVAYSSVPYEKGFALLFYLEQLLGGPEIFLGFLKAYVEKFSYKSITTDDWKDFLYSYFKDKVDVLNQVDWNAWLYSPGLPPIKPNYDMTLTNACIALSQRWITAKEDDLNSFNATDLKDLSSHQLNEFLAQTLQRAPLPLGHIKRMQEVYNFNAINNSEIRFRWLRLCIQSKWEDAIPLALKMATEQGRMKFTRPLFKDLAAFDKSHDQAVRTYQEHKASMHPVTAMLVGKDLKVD
YES if IC50 is below 2 nM. NO if not; exact matches included in NO.

Worked examples, 2 molecules total:
OC1CCN(Cc2cnc3cc(Oc4ccc(-c5ccn[nH]5)cn4)ccc3c2)CC1 : NO
CC1(O)CN(Cc2cnc3cc(Oc4ccc(-c5ccn[nH]5)cn4)ccc3c2)C1 : NO

Now for a further molecule.
Request: Strictly below 2 nM in IC50? OC1CN(Cc2cnc3cc(Oc4ccc(-c5ccn[nH]5)cn4)ccc3c2)C1
Result: NO

----------
Kindly state pIC50 for each of the entries shown.
Test system: synthesis of LTB4 in human whole blood
Protocol Details: LTB4 production inhibition assay in human whole blood (HWB)
Type: cell-based
Experimental Context: heparinized human whole blood, calcimycin 20 μM stimulated, plasma LTB4 by HTRF
Numbers only, as −log10 of the molar value.

O=C(C1CC1)N1CCN(Cc2cnc3cc(Oc4ccc(-c5ccn[nH]5)cn4)ccc3c2)CC1 : 6.64
CC1(O)CN(Cc2cnc3cc(Oc4ccc(-c5ccn[nH]5)cn4)ccc3c2)C1 : 6.39
OC1CN(Cc2cnc3cc(Oc4ccc(-c5ccn[nH]5)cn4)ccc3c2)C1 : 6.37
CC(=O)N1CC(CN(C)Cc2cnc3cc(Oc4ccc(-c5ccn[nH]5)cn4)ccc3c2)C1 : 6.96
O=C1[C@@H](O)CCN1C1CCN(Cc2cnc3cc(Oc4ccc(-c5ccn[nH]5)cn4)ccc3c2)CC1 : 6.43

Your task in this section: give pIC50 for each listed record.
1. O[C@H]1CCN(Cc2cnc3cc(Oc4ccc(-c5ccn[nH]5)cn4)ccc3c2)C1
2. CC(C)(O)C(=O)N1CCN(Cc2cnc3cc(Oc4ccc(-c5ccn[nH]5)cn4)ccc3c2)CC1
3. CC(C)(C)C(=O)N1CCN(Cc2cnc3cc(Oc4ccc(-c5ccn[nH]5)cn4)ccc3c2)CC1
4. CN(Cc1cnc2cc(Oc3ccc(-c4ccn[nH]4)cn3)ccc2c1)[C@@H]1CCN(C(=O)CO)C1
5. CN(C(=O)CO)[C@H]1CCN(Cc2cnc3cc(Oc4ccc(-c5ccn[nH]5)cn4)ccc3c2)C1
6. CN(Cc1cnc2cc(Oc3ccc(-c4ccn[nH]4)cn3)ccc2c1)[C@H]1CCN(C(=O)CO)C1

Result:
6.66
6.64
6.13
6.82
6.60
6.85

Your task in this section: give pIC50 for each listed record.
1. CC(C)C(=O)N1CCN(Cc2cnc3cc(Oc4ccc(-c5ccn[nH]5)cn4)ccc3c2)CC1
2. O=C(CO)N1CCN(Cc2cnc3cc(Oc4ccc(-c5ccn[nH]5)cn4)ccc3c2)CC1
3. COCC(=O)N1CCN(Cc2cnc3cc(Oc4ccc(-c5ccn[nH]5)cn4)ccc3c2)CC1

Result:
[6.80, 6.80, 6.77]

Your task in this section: give pIC50 for each listed record.
1. CC(=O)N1CCN(Cc2cnc3cc(Oc4ccc(-c5ccn[nH]5)cn4)ccc3c2)CC1
2. OC1CCN(Cc2cnc3cc(Oc4ccc(-c5ccn[nH]5)cn4)ccc3c2)CC1
3. O[C@@H]1CCN(Cc2cnc3cc(Oc4ccc(-c5ccn[nH]5)cn4)ccc3c2)C1
4. CN(C)C(=O)C1CCN(Cc2cnc3cc(Oc4ccc(-c5ccn[nH]5)cn4)ccc3c2)CC1
5. CN(C(=O)CO)C1CCN(Cc2cnc3cc(Oc4ccc(-c5ccn[nH]5)cn4)ccc3c2)CC1
6. C[C@H](O)C(=O)N1CCN(Cc2cnc3cc(Oc4ccc(-c5ccn[nH]5)cn4)ccc3c2)CC1
7. O=C1OCCN1C1CCN(Cc2cnc3cc(Oc4ccc(-c5ccn[nH]5)cn4)ccc3c2)CC1

Result:
1: 6.82; 2: 6.30; 3: 6.64; 4: 6.32; 5: 6.42; 6: 6.74; 7: 6.57

Your task in this section: give pIC50 for each listed record.
1. CN(C(=O)CO)[C@@H]1CCN(Cc2cnc3cc(Oc4ccc(-c5ccn[nH]5)cn4)ccc3c2)C1
2. CCC(=O)N1CCN(Cc2cnc3cc(Oc4ccc(-c5ccn[nH]5)cn4)ccc3c2)CC1

Result:
6.74
7.07
